Hello, the source for this data is patent US20160304547A1, in case you need it.

System: Actinobacillus pleuropneumoniae CVCC262
method-notes: MIC by mini broth dilution technique (in vitro susceptibility)
Format: cell-based
condition-parameters: Actinobacillus pleuropneumoniae CVCC262; broth dilution; read-out: MIC values Actinobacillus pleuropneumoniae CVCC262
satisfied if MIC is below 0.5 µg/mL. not satisfied if not; exact matches included in not satisfied.

molecule="CCCCNC[C@]1(O)[C@H](C)OC(O[C@@H]2[C@@H](C)[C@@H](O[C@@H]3O[C@H](C)C[C@H](N(C)C)[C@H]3O)[C@](C)(O)C[C@@H](C)NC[C@@H](C)[C@H](O)[C@](C)(O)[C@H](CC)OC(=O)[C@@H]2C)C[C@@]1(C)OC (some centres unmarked)" category="not satisfied"
molecule="CC[C@@H]1OC(=O)[C@H](C)[C@H](OC2C[C@@](C)(OC)[C@](O)(CN3CCOCC3)[C@H](C)O2)[C@@H](C)[C@@H](O[C@@H]2O[C@H](C)C[C@H](N(C)C)[C@H]2O)[C@](C)(O)C[C@@H](C)NC[C@@H](C)[C@H](O)[C@]1(C)O (some centres unmarked)" category="not satisfied"
molecule="CC[C@@H]1OC(=O)[C@H](C)[C@H](OC2C[C@@](C)(OC)[C@](O)(CNCC(C)C)[C@H](C)O2)[C@@H](C)[C@@H](O[C@@H]2O[C@H](C)C[C@H](N(C)C)[C@H]2O)[C@](C)(O)C[C@@H](C)NC[C@@H](C)[C@H](O)[C@]1(C)O (some centres unmarked)" category=satisfied
molecule="CC[C@@H]1OC(=O)[C@H](C)[C@H](OC2C[C@@](C)(OC)[C@](O)(CN(CC)CC)[C@H](C)O2)[C@@H](C)[C@@H](O[C@@H]2O[C@H](C)C[C@H](N(C)C)[C@H]2O)[C@](C)(O)C[C@@H](C)NC[C@@H](C)[C@H](O)[C@]1(C)O (some centres unmarked)" category="not satisfied"
molecule="CC[C@@H]1OC(=O)[C@H](C)[C@H](OC2C[C@@](C)(OC)[C@](O)(CNCCCOC)[C@H](C)O2)[C@@H](C)[C@@H](O[C@@H]2O[C@H](C)C[C@H](N(C)C)[C@H]2O)[C@](C)(O)C[C@@H](C)NC[C@@H](C)[C@H](O)[C@]1(C)O (some centres unmarked)" category="not satisfied"

Query block: Lab log: compare recorded MIC with 0.5 µg/mL; is it strictly lower for CCCN1C[C@@H](C)[C@@H](O)[C@](C)(O)[C@H](CC)OC(=O)[C@H](C)[C@H](OC2C[C@@](C)(OC)[C@](O)(CN(C)CC)[C@H](C)O2)[C@H](C)[C@@H](O[C@@H]2O[C@H](C)C[C@H](N(C)C)[C@H]2O)[C@](C)(O)C[C@H]1C (some centres unmarked) ?
Result block: satisfied
